Tested on: Bacillus subtilis
assay-explanation: cleaved RNA product abundance (RNA/gDNA barcode ratio) relative to median wild-type variant (ratio to wild type); higher = more accumulation of the downstream cleavage product
stated-conditions: experiment (reporter, strain, medium): exp 2b: truncated aprE reporter, strain BJT200; cleavage site: cggR-gapA (positions -7 to +36 mutated)
Please respond with reported cleaved RNA product abundance for every item in the list.
Give the figure by itself; no unit, no explanation.

Asked: I am curious: what cleaved RNA product abundance value has been reported for "ACAGACGAAGGAGCCGCAAAGAAGTTATTAAGAGATGAATAATCCCTCAAAATAAATATCTCTCACTTATTTAAA" ?
Given back: 0.101

Asked: I am curious: what cleaved RNA product abundance value has been reported for "ACAGACGAAGGAGCCGCAAAGAAGTGATTAACGGATGAATAATCCCTCAATATAAATATCTCTCACTTATTTAAA" ?
Given back: 0.129

Asked: I am curious: what cleaved RNA product abundance value has been reported for "ACAGACGAAGGAGCCGCAAAGAAGTTATCAAGGGATGAATAATCCCTCAAAATAAATATCTCTCACTTATTTAAA" ?
Given back: 0.2

Asked: I am curious: what cleaved RNA product abundance value has been reported for "ACAGACGAAGGAGCCGCGAAGAAGTTATTAAGGTATGAATAATCCCTCAATATAAATATCTCTCACTTATTTAAA" ?
Given back: 0.117

====

Tested on: Bacillus subtilis
assay-explanation: cleaved RNA product abundance (RNA/gDNA barcode ratio) relative to median wild-type variant (ratio to wild type); higher = more accumulation of the downstream cleavage product
stated-conditions: experiment (reporter, strain, medium): exp 4a: truncated aprE reporter, strain BJT201 with 2% xylose (RNase J1 expressed); cleavage site: cggR-gapA (positions -7 to +36 mutated)
Please respond with reported cleaved RNA product abundance for every item in the list.
Give the figure by itself; no unit, no explanation.

Asked: I am curious: what cleaved RNA product abundance value has been reported for "ACAGACGAAGGAGCCGCAAAGAAGATTTTAAGGCATGAATAATCCCTCAATATAAATATCTCTCACTTATTTAAA" ?
Given back: 0.143

Asked: I am curious: what cleaved RNA product abundance value has been reported for "ACAGACGAAGGAGCCGCAAAGGAGTTAATAAGGGATGAATAATCCCTCAATATAAATATCTCTCACTTATTTAAA" ?
Given back: 0.436

Asked: I am curious: what cleaved RNA product abundance value has been reported for "ACAGACGAAGGAGCCGCAAAGAAGTTATTAAGAGATGAATAATCACTCAATATAAATATCTCTCACTTATTTAAA" ?
Given back: 0.127

Asked: I am curious: what cleaved RNA product abundance value has been reported for "ACAGACGAAGGAGCCGCAAAGAAGTTATTATGAGATGAATAATCCCTCAATATAAATATCTCTCACTTATTTAAA" ?
Given back: 0.147

Asked: I am curious: what cleaved RNA product abundance value has been reported for "ACAGACGAAGGAGCCGCAAATAAGTTATTAAGGGATGAATAATCCCTCAATATAAATACCTCTCACTTATTTAAA" ?
Given back: 0.538

Asked: I am curious: what cleaved RNA product abundance value has been reported for "ACAGACGAAGGAGCCGCAAAGAAGTTATCAAGGGATGAATAATCCCTCACTATAAATATCTCTCACTTATTTAAA" ?
Given back: 0.306

Asked: I am curious: what cleaved RNA product abundance value has been reported for "ACAGACGAAGGAGCCGCAAAGAAGTTATTAAGGGATGAATATTCCCTCAATATAAATATCTCTCACTTATTTAAA" ?
Given back: 0.699
